system: HeLa MKYP cells; experiment: Human mitophagy assay (HeLa MKYP, mtKeima FACS, FCCP/oligomycin); type: cell-based; conditions: Homo sapiens, HeLa, Table 3 Supplement A; as measured in Table 3; read-out: Potency (EC50 Max Mitophagy) (μM)*
# key: entry, value: EC50
Numeric only. Scale: µM

Solved entries (count: 6):
c1ccc2c(c1)OCC[C@@H]2Nc1ncnc2[nH]cnc12    1.69
C[C@H](Nc1ncnc2[nH]cnc12)c1ccccc1    2.09
OC[C@@H](Nc1ncnc2[nH]c(C(F)(F)F)cc12)c1ccccc1    4.41
OC[C@H](Nc1ncnc2[nH]cnc12)c1ccccc1    3.48
FC(F)(F)c1cc2c(N[C@H]3CCOc4ccccc43)ncnc2[nH]1    5.64
FC(F)(F)c1cc2c(N[C@@H]3COc4ccccc43)ncnc2[nH]1    14.9

Which EC50 is reported for this molecule? CC(Nc1ncnc2[nH]cnc12)c1ccccc1 (stereo not drawn)
2.69

Repeat with "Clc1cccc(CNc2ncnc3nc[nH]c23)c1"
16

Please do the same for "C[C@@H](Nc1ncnc2[nH]c(C(F)(F)F)cc12)c1ccccc1" as well.
3.62

// query: "FC(F)(F)c1cc2c(N[C@@H]3CCOc4ccccc43)ncnc2[nH]1"
6.28

Entry source: patent US20220162215A1
